# system_name: T1, Fibrinogen fragment D (human, UniProt P02671 130-216; P02675 164-491; P02679 114-432, limits assumed)
# T1 construct: domain: Fragment D (or D-domain); Made by plasmin digestion of human fibrinogen and purified on GPRPAA beads; holds the C-terminal polymerization pockets without the N-terminal knobs; immobilised by amine coupling on the SPR chip; also called D-domain
# T1 sequence (looked up) 1: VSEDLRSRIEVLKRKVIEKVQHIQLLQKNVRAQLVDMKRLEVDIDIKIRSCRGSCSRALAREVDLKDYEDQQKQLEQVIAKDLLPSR
# T1 sequence (looked up) 2: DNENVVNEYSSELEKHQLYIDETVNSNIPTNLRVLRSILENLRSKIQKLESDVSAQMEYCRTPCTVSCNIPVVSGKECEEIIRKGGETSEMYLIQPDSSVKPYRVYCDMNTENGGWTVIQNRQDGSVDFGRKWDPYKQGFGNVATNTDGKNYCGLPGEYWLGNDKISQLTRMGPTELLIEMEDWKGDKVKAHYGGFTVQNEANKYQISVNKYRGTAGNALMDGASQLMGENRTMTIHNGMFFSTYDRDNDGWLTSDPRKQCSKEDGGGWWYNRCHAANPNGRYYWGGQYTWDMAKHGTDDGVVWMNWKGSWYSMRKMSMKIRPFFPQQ
# T1 sequence (looked up) 3: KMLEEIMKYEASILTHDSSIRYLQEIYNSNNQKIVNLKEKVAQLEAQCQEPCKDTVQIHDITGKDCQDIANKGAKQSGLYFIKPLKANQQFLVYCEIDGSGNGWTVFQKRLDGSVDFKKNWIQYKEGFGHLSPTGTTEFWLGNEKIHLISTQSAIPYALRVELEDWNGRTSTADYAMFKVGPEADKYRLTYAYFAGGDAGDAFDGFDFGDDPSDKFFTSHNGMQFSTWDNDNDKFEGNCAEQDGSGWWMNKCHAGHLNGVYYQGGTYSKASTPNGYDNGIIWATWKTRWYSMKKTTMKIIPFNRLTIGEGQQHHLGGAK
# test_method_notes: SPR, fragment D immobilised, heterogeneous ligand model, site 1 (kd1)
result_type: koff (s⁻¹)

Query block: # lookup: koff of GPRPFPAC (Synthetic (GenScript); also called knob 'A' peptide)
Result block: 0.0811

[I] GPRPAAC (Synthetic (GenScript); kept reduced with immobilised TCEP; also called gold standard GPRP mimic; knob 'A' peptide)
[II] GPRPPERC (Synthetic (GenScript); also called knob 'A' peptide)
Query block: Param metric = koff; output whichever of I , II has the minimum value. # answer = label of selected item
Result block: I

[1] GPRVVERC (Synthetic (GenScript); also called knob 'A' peptide)
[2] GPRVVAAC (Synthetic (GenScript); also called knob 'A' peptide)
Query block: Just curious, which one has the larger koff reading, 1 or 2 ? Respond using the label that marks the chosen record.
Result block: 1
(1: 0.0577 s⁻¹, 2: 0.0301 s⁻¹)
